- test_description: NCI Yeast Anticancer Drug Screen. Data for the bub3 strain (AID 167)
- test_parameters: S. cerevisiae bub3 mutant strain, at 5.0 µM (retest, dose inferred, filed as 0.5), stronger effect = higher value
The panel holds about 79,000 compounds, 15% with a hit somewhere; the sample as a whole holds those more often.
Quick reference: growth inhibition of the listed items.
experimental_readout: growth inhibition (%)

INSERT INTO results (record_smiles, measured_number) VALUES
  ('O=C1c2ccccc2-c2cc3ccccc3nc21', 15),
  ('c1cc2c(c3c1CN(C1CCCCC1)CO3)OCN(C1CCCCC1)C2', 5),
  ('CNC(=S)N/N=C(\C=N\NC(=S)NC)c1ccccc1', -1),
  ('O=C(Nc1ccc(C(=O)Nc2ccc3c(O)cc(S(=O)(=O)O)cc3c2)cc1)c1ccccc1', 0),
  ('CCCCCCCCNS(=O)(=O)c1ccc(N)cc1', 1),
  ('CC(/C=C/c1ccco1)=N\NC(=S)NCC(C)C', 30);
